Just for reference, patent US20240010684A1 is where these values come from.

ASSAY TARGET: human MASP2 (Homo sapiens (Human))
Sequence (O00187 other isoform, or with tags, fused parts or gaps): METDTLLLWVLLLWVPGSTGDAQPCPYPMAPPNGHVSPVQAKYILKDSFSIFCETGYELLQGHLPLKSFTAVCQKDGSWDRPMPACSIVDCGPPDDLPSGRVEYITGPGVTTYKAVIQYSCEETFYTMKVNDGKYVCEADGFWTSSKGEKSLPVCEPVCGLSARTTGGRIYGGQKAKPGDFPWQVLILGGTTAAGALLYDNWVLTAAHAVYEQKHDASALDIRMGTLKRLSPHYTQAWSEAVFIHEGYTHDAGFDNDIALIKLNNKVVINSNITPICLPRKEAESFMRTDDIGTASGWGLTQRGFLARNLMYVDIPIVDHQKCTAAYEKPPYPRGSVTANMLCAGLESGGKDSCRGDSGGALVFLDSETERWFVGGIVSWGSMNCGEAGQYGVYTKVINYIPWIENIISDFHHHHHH
ASSAY: Biochemical human MASP2 assay (FRET substrate)
MEASUREMENT CONTEXT: Average IC50; recombinant human MASP2; read-out: human MASP2 IC50
Where a SMILES comes first, the peptide text is derived from it. Bridges are numbered along the chain shown (N, C = ends). [ ]: non-standard residue; d: D form. Oic = O=C(O)[C@@H]1C[C@@H]2CCCC[C@@H]2N1; tBuAla = CC(C)(C)C[C@H](N)C(=O)O; Pen = CC(C)(S)[C@H](N)C(=O)O; Ahx = NCCCCCC(=O)O

COMPOUND	DISPLAY UNIT	IC50
CC[C@H](C)[C@@H]1NC(=O)[C@H](C)NC(=O)CNC(=O)CCCCCNC(=O)CC[C@@H](C(N)=O)NC(=O)[C@@H]2CCCN2C(=O)[C@H]([C@@H](C)CC)NC(=O)[C@H]2NC(=O)[C@H]([C@@H](C)CC)NC(=O)[C@@H]3C[C@@H]4CCCC[C@@H]4N3C(=O)[C@@H]3CCCN3C(=O)[C@H](CC(C)C)NC(=O)[C@H](CO)NC(=O)[C@H](CCCNC(=N)N)NC(=O)[C@H](CO)NC(=O)[C@H](CSSC2(C)C)NC1=O [Example 82] ([Ahx]GAICSRSLP[Oic]I[Pen]IPE-NH2; disulfide 5-13; lactam N-16)	nM	700
CC[C@H](C)[C@@H]1NC(=O)CNC(=O)CCCCCNC(=O)[C@H](CC(=O)O)NC(=O)[C@@H]2CCCN2C(=O)[C@H]([C@@H](C)CC)NC(=O)[C@H]2NC(=O)[C@H]([C@@H](C)CC)NC(=O)[C@@H]3CCCN3C(=O)[C@@H]3CCCN3C(=O)[C@H](CC(C)(C)C)NC(=O)[C@H](CO)NC(=O)[C@H](CCCNC(=N)N)NC(=O)[C@H](CO)NC(=O)[C@H](CSSC2(C)C)NC1=O [Example 28] (cyclo([Ahx]GICSRS[tBuAla]PPI[Pen]IPD); disulfide 4-12)	nM	29
CC[C@H](C)[C@@H]1NC(=O)CNC(=O)CNC(=O)[C@@H](C)NC(=O)[C@H](CC(=O)O)NC(=O)[C@@H]2CCCN2C(=O)[C@H]([C@@H](C)CC)NC(=O)[C@@H]2CSSC[C@H](NC1=O)C(=O)N[C@@H](CO)C(=O)N[C@@H](CCCNC(=N)N)C(=O)N[C@@H](CO)C(=O)N[C@@H](CC(C)C)C(=O)N1CCC[C@H]1C(=O)N1CCC[C@H]1C(=O)N[C@@H]([C@@H](C)CC)C(=O)N2 [Example 19] (cyclo(CIPD[dA]GGICSRSLPPI); disulfide 1-9)	nM	210
